- Test system: HCT-116 colon
- assay.protocol: NCI tumour cell line growth inhibition, 48 h
Consider the following compounds and their measured TGI readings.

Below, 4 compounds whose answers are already recorded.
compound	assayed.target	TGI
COc1cc2c(cc1OCCCCNC(=O)c1cc3ccccc3[nH]1)N=CC1CCCN1C2=O (centres undefined)	HCT-116 colon	> 100 µM
COC1/C=C/C(C)C(OC)CC(O)/C=C/C(C)C(C(C)C(OC)C(C)CCC(=O)C(C)C(C/C=C/N(C)C=O)OC)OC(=O)/C=C/C=C(\C)CC(OC)C(OC)C2=CC(=O)O[C@@H](C(C)C(OC)C1)[C@H]2O (some centres undefined)	HCT-116 colon	0.0613 µM
C/C=C/C=N/N(c1nnc(-c2ccccc2)c(-c2ccccc2)n1)S(=O)(=O)c1ccc(C)cc1	HCT-116 colon	28 µM
NC(CCCCCP(=O)(O)O)C(=O)O (centres undefined)	HCT-116 colon	> 100 µM

// lookup TGI for O=C1NC(=NCC(CO)c2ccccc2)S/C1=C\c1ccc2ncccc2c1 (centres undefined) > 25 µM

State the recorded TGI for this entry: CN(C)CC(C(=O)c1ccccc1)c1ccccc1 (centres undefined) 2.2 µM

// TGI lookup, key: `COc1ccc(Nc2c3ccccc3nc3c2c2ccccc2n3C)cc1` > 100 µM

Quick one: TGI of `O=C(CSc1nc2ccc(I)cc2c(=O)n1Cc1ccccc1)N/N=C/c1ccccc1` ? > 100 µM

Please report the recorded TGI for CCCCC1Cc2cc(O)ccc2-c2n1c1cc(O)ccc1[n+]2C (centres undefined) (tested in a mixture with another compound) . > 100 µM

###

Recorded GI50 values (SK-MEL-5 melanoma) are given below.

compound	data.value
CCN1CCN(CCOc2ccc(CNc3ccc4nc(CCC5CCCCC5)[nH]c4c3)cc2)CC1	1.73 µM
COC(=O)/C(C#N)=C\N1CCN(C(=O)c2ccco2)C1=S	14.8 µM
CC1=C(N2CC2)C(=O)C(CO)=C(N2CC2)C1=O	0.0399 µM
COc1cc(CNC(=O)/C=C/C=C/c2ccc3c(c2)OCO3)ccc1OCc1cn(-c2ccc(Cl)c(Cl)c2)nn1	1.77 µM

Next, consider the following compound.
Hi! What's the reported GI50 for O=C1NC(=NCC(CO)c2ccccc2)S/C1=C\c1ccc2ncccc2c1 (stereo not given) on SK-MEL-5 melanoma? > 25 µM

###

HOP-62 NSCLC measurements of GI50, listed per entry.

compound	data.value
CSC1=Nc2c(c(C)c(-c3ccccc3)n2COC(CO)CO)C2=NC(=O)C(C)N12 (stereo not given)	> 100 µM
CCN(CC)CCN1C(=O)c2cccc3c(-c4ccc5c(c4)ncn5C4CCCCC4)ccc(c23)C1=O	1.46 µM
N#Cc1ccc(Oc2nccc(-c3c(-c4ccc(F)cc4)ncn3C3CCNCC3)n2)cc1	> 25 µM
O=C1C2=C(C(=O)c3c(O)ccc(O)c31)N(c1ccc(N3CCOCC3)nc1)Cc1ccccc1O2	1.52 µM

Alright, here's another compound for you.
Any idea what its GI50 is? The compound is `COC1=C(OC)C(=O)C(/C=C(\C)C(=O)O)=C(C)C1=O` > 100 µM

###

- Tested on: OVCAR-8 ovarian
- assay.protocol: NCI tumour cell line growth inhibition, 48 h
Collected TGI values appear next to each entry.

compound	measurement.label	data.value
C[N+](C)(C)CCOP(=O)(O)OP(=O)([O-])OCC1CCC(n2ccc(N)nc2=O)O1 (stereo not given)	TGI	> 100 µM
O=C(NC(=O)c1cn(CCN2CCNCC2)c(=O)[nH]c1=O)OCc1ccccc1	TGI	> 100 µM
O=C(N=Nc1ccc([N+](=O)[O-])cc1)NNc1ccc([N+](=O)[O-])cc1	TGI	41.9 µM
Clc1ccc(-c2nc3c(-c4ccc(Cl)cc4)nc(-c4ccccc4)cn3c2-c2ccc(Cl)cc2)cc1	TGI	> 50 µM
COc1ccc(/C=C/C(=O)c2sc(N)nc2C)cc1	TGI	> 100 µM
O=C(Nc1cccc(Cl)c1)Nc1cccc(Cl)c1	TGI	> 100 µM
CC(C)c1cc(C(C)C)c(S(=O)(=O)NN)c(C(C)C)c1	TGI	> 100 µM
Cc1ccc2nc3c(Cl)cc(=O)cc-3sc2c1	TGI	43.4 µM
CC(/C=C/c1ncccc1OCCCCCC(=O)O)=N\NC1=NCCN1	TGI	> 100 µM

Next up:
Entry COc1cc(/C=C2\C(=O)N(c3cccc(Cl)c3)C(c3ccccc3)S2(=O)=O)cc(OC)c1OC (stereo not given) has what TGI? > 100 µM
